- TARGET_UNDER_TEST: GRK2 (Homo sapiens)
- PROTOCOL: GRK2 Degradation Assay and Western Blot in PAXF1657 cells
- Format: cell-based
- Design: endogenous in cells; host or cells: PAXF1657
- MEASUREMENT_CONDITIONS: 1 uM, PAXF1657 EV, 24 hrs; read-out: % GRK2 degradation at 1 uM in PAXF1657 EV (24 hrs)
- Protocol: General Protocol: Degradation Assay and Western Blot. PAXF1657 cells were plated in 6-well, 24-well plates or 60 mm tissue culture treated dishes and incubated at 37° C. until 70% confluency. […] Samples were mixed with NuPAGE LDS sample buffer and NuPAGE sample reducing buffer (3×), vortexed and heated at 95° C. for 10 min, and then analyzed by SDS-PAGE (NuPAGE 4-12%) followed by transfer to nitrocellulose membrane. […]
The following molecules are listed with their measured inhibition at 1 µM values.
Write the value in % as a bare number.

Consider the following illustrative entries.
>>> assay_value("Cc1ncsc1-c1ccc(CNC(=O)[C@@H]2C[C@@H](O)CN2C(=O)[C@@H](NC(=O)CCCc2cn(CCCCCCOc3cccc(CNC(=O)c4cccc(NCc5nnc(-c6ccncn6)n5C)c4)c3)nn2)C(C)(C)C)cc1")
16
>>> assay_value("Cc1ncsc1-c1ccc(CNC(=O)[C@@H]2C[C@@H](O)CN2C(=O)[C@@H](NC(=O)COCCOCCOCCOCCOCCOCCCCCCOc2cccc(CNC(=O)c3cccc(NCc4nnc(-c5ccncn5)n4C)c3)c2)C(C)(C)C)cc1")
22

Input line: Item Cc1ncsc1-c1ccc(CNC(=O)[C@@H]2C[C@@H](O)CN2C(=O)[C@@H](NC(=O)COCCOCCCCCCOc2cccc(CNC(=O)c3cccc(NCc4nnc(-c5ccncn5)n4C)c3)c2)C(C)(C)C)cc1 has what recorded inhibition at 1 µM?
Output line: 18

Input line: Fill blank: measured inhibition at 1 µM of the molecule Cc1ncsc1-c1ccc(CNC(=O)[C@@H]2C[C@@H](O)CN2C(=O)[C@@H](NC(=O)CCCOCCOCCOCCCCCCOc2cccc(CNC(=O)c3cccc(NCc4nnc(-c5ccncn5)n4C)c3)c2)C(C)(C)C)cc1 is ____.
Output line: -1

---

- TARGET_UNDER_TEST: GRK2 (Homo sapiens, UniProt P25098)
- Sequence (P25098 1-689): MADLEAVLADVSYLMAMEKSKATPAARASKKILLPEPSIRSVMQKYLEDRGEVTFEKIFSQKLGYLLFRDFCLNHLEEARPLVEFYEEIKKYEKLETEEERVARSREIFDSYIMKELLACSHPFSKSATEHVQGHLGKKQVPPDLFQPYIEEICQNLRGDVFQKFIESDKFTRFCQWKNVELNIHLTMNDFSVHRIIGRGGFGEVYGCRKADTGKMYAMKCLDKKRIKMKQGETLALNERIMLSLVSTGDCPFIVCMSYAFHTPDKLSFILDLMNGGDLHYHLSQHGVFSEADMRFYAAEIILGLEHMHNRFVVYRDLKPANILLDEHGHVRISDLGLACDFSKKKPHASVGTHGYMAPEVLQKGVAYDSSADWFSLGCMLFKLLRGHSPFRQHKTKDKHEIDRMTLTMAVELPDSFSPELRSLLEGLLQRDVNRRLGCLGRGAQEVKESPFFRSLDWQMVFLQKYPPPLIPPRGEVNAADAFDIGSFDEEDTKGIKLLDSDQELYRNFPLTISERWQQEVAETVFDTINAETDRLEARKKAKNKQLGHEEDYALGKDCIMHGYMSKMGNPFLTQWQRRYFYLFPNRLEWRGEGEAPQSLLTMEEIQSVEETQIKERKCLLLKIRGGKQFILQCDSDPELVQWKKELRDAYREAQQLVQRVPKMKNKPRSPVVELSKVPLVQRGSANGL
- PROTOCOL: GRK2 Degradation Assay and Western Blot in PAXF1657 cells
- Assay type: cell-based
- Design: endogenous in cells; host or cells: PAXF1657
- MEASUREMENT_CONDITIONS: Conc 1 uM; read-out: Degradation Assay - 3 point: Degradation (%)
A collection of compounds and their measured inhibition at 1 µM
Please give a number only; it is taken to be in %.

Below, each entry is followed by its recorded inhibition at 1 µM result.
>>> assay_value("C[C@H](NC(=O)c1cccc(NCc2nnc(-c3ccncn3)n2C)c1)c1ccc(OCCCCCOCCCOCC(=O)Nc2cccc3c2CN(C2CCC(=O)NC2=O)C3=O)cc1 (stereo partly drawn)")
43
>>> assay_value("C[C@@H](NC(=O)c1cccc(NCc2nnc(-c3ccncn3)n2C)c1)c1cccc(OCCCCCCOCCOCC(=O)Nc2cccc3c2CN(C2CCC(=O)NC2=O)C3=O)c1 (stereo partly drawn)")
72.9

As a next step, examine the compound that follows.
Input line: Find the measured inhibition at 1 µM: item C[C@@H](NC(=O)c1cccc(NCc2nnc(-c3ccncn3)n2C)c1)c1cccc(OCCCCCCOCCOCCOCCCC(=O)Nc2cccc3c2CN(C2CCC(=O)NC2=O)C3=O)c1 (stereo partly drawn) , target or system GRK2 (Homo sapiens, UniProt P25098).
Output line: 81.5

---

- TARGET_UNDER_TEST: GRK2 (Homo sapiens)
- PROTOCOL: GRK2 Degradation Assay and Western Blot in PAXF1657 cells
- Format: cell-based
- Design: endogenous in cells; host or cells: PAXF1657
- MEASUREMENT_CONDITIONS: 0.03 uM, PAXF1657 EV, 24 hrs
METRIC: % GRK2 degradation at 0.03 uM in PAXF1657 EV (24 hrs) (%)
Write down the numeric answer in % and omit the unit.

Solved entries:
>>> assay_value("CC(NC(=O)c1cccc(NCc2nnc(-c3ccncn3)n2C)c1)c1cccc(OCCCCCCOCCOCCOCCCCCC(=O)Nc2cccc3c2CN(C2CCC(=O)NC2=O)C3=O)c1 (stereo not shown) [Compound D67]")
38
>>> assay_value("Cc1ncsc1-c1ccc(CNC(=O)[C@@H]2C[C@@H](O)CN2C(=O)[C@@H](NC(=O)CCCCCOCCOCCOCCCCCCOc2cccc(C(C)NC(=O)c3cccc(NCc4nnc(-c5ccncn5)n4C)c3)c2)C(C)(C)C)cc1 (stereo partly shown) [Compound D91]")
37
>>> assay_value("Cn1c(CNc2cccc(C(=O)NCc3cc(OCCCCCCOCCOCCOCCCCCC(=O)Nc4cccc5c4CN(C4CCC(=O)NC4=O)C5=O)ccc3F)c2)nnc1-c1ccncn1 (stereo not shown) [Compound D66]")
8

Input line: Suppose we examine the molecule Cn1c(CNc2cccc(C(=O)NCc3cccc(OCCCCCCOCCOCCOCCCCCC(=O)Nc4cccc5c4CN(C4CCC(=O)NC4=O)C5)c3)c2)nnc1-c1ccncn1 (stereo not shown) [Compound D73] ; what % GRK2 degradation at 0.03 uM in PAXF1657 EV (24 hrs) value has been reported?
Output line: 15

---

- TARGET_UNDER_TEST: GRK2 (Homo sapiens)
- Sequence (P25098 1-689): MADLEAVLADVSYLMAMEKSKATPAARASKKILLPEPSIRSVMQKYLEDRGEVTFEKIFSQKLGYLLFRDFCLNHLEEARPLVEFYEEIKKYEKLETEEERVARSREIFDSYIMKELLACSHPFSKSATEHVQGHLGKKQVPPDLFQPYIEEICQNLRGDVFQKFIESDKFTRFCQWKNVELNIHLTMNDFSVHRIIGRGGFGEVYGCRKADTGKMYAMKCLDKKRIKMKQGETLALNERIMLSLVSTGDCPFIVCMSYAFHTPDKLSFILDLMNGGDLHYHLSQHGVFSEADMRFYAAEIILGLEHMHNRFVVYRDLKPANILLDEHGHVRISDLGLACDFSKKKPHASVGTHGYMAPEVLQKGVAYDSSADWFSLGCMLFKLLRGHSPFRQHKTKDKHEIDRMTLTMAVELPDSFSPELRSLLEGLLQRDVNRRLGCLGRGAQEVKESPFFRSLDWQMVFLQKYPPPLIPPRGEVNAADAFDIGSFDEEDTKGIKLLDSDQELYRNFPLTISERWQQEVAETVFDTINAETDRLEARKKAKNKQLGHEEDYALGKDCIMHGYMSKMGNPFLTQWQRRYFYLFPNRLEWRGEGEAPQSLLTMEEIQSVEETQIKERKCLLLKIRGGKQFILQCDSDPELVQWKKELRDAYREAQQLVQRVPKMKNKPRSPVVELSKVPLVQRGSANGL
- PROTOCOL: GRK2 Degradation Assay and Western Blot in PAXF1657 cells
- Assay type: cell-based
- Design: endogenous in cells; host or cells: PAXF1657
- MEASUREMENT_CONDITIONS: Conc 0.3 uM; read-out: Degradation Assay - 3 point: Degradation (%)
inhibition at 0.3 µM: recorded values
Write the number in % without appending the unit.

>>> assay_value("C[C@@H](NC(=O)c1cccc(NCc2nnc(-c3ccncn3)n2C)c1)c1cccc(OCCCCCCOCCOCC(=O)Nc2cccc3c2CN(C2CCC(=O)NC2=O)C3=O)c1 (some centres unmarked)")
51.6
>>> assay_value("C[C@@H](NC(=O)c1cccc(NCc2nnc(-c3ccncn3)n2C)c1)c1ccc(OCCCN2CCN(c3ccc4c(c3)CN(C3CCC(=O)NC3=O)C4=O)CC2)cc1 (some centres unmarked)")
52.5
>>> assay_value("C[C@H](NC(=O)c1cccc(NCc2nnc(-c3ccncn3)n2C)c1)c1cccc(OCCCCCCOCCOCCOCCCC(=O)Nc2cccc3c2CN(C2CCC(=O)NC2=O)C3=O)c1 (some centres unmarked)")
25.1

Input line: Item C[C@@H](NC(=O)c1cccc(NCc2nnc(-c3ccncn3)n2C)c1)c1cccc(OCCCCCOCCCOCC(=O)Nc2cccc3c2CN(C2CCC(=O)NC2=O)C3=O)c1 (some centres unmarked) has what recorded inhibition at 0.3 µM?
Output line: 82

Input line: Dear colleague, I am looking for the recorded inhibition at 0.3 µM of the following molecule: C[C@H](NC(=O)c1cccc(NCc2nnc(-c3ccncn3)n2C)c1)c1ccc(OCCCCCOCCCOCC(=O)Nc2cccc3c2CN(C2CCC(=O)NC2=O)C3=O)cc1 (some centres unmarked)
Output line: 44
